Substrate: p-NP-C4
conditions-used: pH 7; 37 °C
Provide the recorded kcat for the entries that follow.
Your reply should be a number followed by the unit it is expressed in.

Which kcat value belongs to unnamed (protein) MMNFNNVFRWHLPFLFLVLLTFRAAAADTLLILGDSLSAGYRMSASAAWPALLNDKWQSKTSVVNASISGDTSQQGLARLPALLKQHQPRWVLVELGGADGLRGFQPQQTEQTLRQILQDVKAANAEPLLMQIRLPANYGRRYNEAFSAIYPKLAKEFDVPLLPFFMEEVYLKPQWMQDDGIHPNRDAQPFIADWMAKQLQPLVNHDS ?
12 s⁻¹

May I ask what kcat has been recorded for unnamed (protein) MMNFNNVFRWHLPFLFLVLLTFRAAAADTLLILGDALSAGYRMSASAAWPALLNDKWQSKTSVVNASISGDTSQQGLARLPALLKQHQPRWVLVELGGNDGLRGFQPQQTEQTLRQILQDVKAANAEPLLMQIRLPANYGRRYNEAFSAIYPKLAKEFDVPLLPFFMEEVYLKPQWMQDDGIHPNRDAQPFIADWMAKQLQPLVNHDS ?
0.16 s⁻¹
